Ref: patent US20210238162A1

target entity: haematopoietic prostaglandin D synthase (H-PGDS) (Homo sapiens, UniProt O60760)
Construct: Full length human H-PGDS cDNA (Invitrogen Ultimate ORF IOH13026) was amplified by PCR; made in house; host or cells: E. coli BL21 (DE3*), vector pET22b+
Sequence (O60760 whole entry): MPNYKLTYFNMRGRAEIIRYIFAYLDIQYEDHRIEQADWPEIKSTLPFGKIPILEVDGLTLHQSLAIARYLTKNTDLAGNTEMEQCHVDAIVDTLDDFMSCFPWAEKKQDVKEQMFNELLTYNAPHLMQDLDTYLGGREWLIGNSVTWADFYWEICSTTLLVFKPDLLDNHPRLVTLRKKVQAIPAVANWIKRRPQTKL
experimental details: H-PGDS RapidFire High Throughput Mass Spectrometry Assay
Type: biochemical
measurement parameters: H-PGDS RapidFire MS assay, mean pIC50; read-out: Potency Range (mean pIC50) (converted)
Structures can show the parent of a compound that is named as a salt.
quantity name: IC50

## Task Please give the documented IC50 of "O=C(N[C@H]1CC[C@](O)(C(F)F)CC1)c1cnc2cc(OC(F)F)c(Cl)cc2c1"
## Result 0.01 to 0.0794 µM

## Task Please give the documented IC50 of "C[C@H]1CCN1c1cc2ncc(C(=O)N[C@H]3CCNC3=O)cc2cc1Cl"
## Result 0.01 to 0.0794 µM

## Task Please give the documented IC50 of "C[C@]1(O)CC[C@H](NC(=O)c2cnc3cc(OC(F)F)c(Cl)cc3c2)CC1"
## Result < 0.01 µM

## Task Please give the documented IC50 of "CC(C)(O)[C@H]1CC[C@H](NC(=O)c2cnc3cc(Cl)ccc3c2)CC1"
## Result 0.1 to 1 µM

## Task Please give the documented IC50 of "CC(C)(F)c1cc2ncc(C(=O)N[C@H]3CC[C@H](C(C)(C)O)CC3)cc2cc1Cl"
## Result < 0.01 µM

## Task Please give the documented IC50 of "COc1cccc2cc(C(=O)Nc3nccs3)cnc12"
## Result 0.01 to 0.0794 µM

## Task Please give the documented IC50 of "O=C(N[C@H]1CC[C@H](N2CC(O)(C(F)(F)F)C2)CC1)c1cnc2cc(OC(F)F)c(F)cc2c1"
## Result 0.01 to 0.0794 µM

## Task Please give the documented IC50 of O=C(NC1CCNC1=O)c1cnc2cc(OC(F)F)c(Cl)cc2c1 (stereo in doubt) [Example 117, trifluoroacetate]
## Result < 0.01 µM
